Reported values: IC50 for Amine oxidase [flavin-containing] A (Homo sapiens, UniProt P21397), one per item.
Just the number please, in µM, no unit attached.

Task: IC50 of c1ccc(/N=N/c2ccccc2)cc1 [(E)-1,2-diphenyldiazene] on Amine oxidase [flavin-containing] A (Homo sapiens, UniProt P21397)?
Output: 22.9

Task: Try this compound too: "CN(C)c1ccc(/N=N/c2ccccc2)cc1"
Output: 4.64

###

biological target: Amine oxidase [flavin-containing] B (Homo sapiens, UniProt P27338)
Sequence (P27338 whole entry): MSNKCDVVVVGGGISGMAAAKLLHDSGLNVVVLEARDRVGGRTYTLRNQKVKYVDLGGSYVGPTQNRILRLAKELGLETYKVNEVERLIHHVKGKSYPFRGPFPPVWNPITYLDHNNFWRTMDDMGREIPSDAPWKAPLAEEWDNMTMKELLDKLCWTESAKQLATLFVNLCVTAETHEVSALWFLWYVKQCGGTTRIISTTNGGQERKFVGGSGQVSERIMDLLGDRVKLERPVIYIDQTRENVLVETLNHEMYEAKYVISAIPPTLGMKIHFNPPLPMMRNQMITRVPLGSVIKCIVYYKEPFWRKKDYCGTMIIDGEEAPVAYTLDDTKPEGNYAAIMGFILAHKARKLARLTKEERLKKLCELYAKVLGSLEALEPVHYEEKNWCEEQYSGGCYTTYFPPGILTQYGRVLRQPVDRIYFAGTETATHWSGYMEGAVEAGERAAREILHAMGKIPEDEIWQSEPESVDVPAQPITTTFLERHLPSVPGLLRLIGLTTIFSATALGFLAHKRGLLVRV
What IC50 was measured for each of the following?
Report the value in nM with no unit label.

Task: What does the record list as IC50 for c1ccc(/N=N/c2ccccc2)cc1 [(E)-1,2-diphenyldiazene] ?
Output: 2660

Task: Likewise for "CN(C)c1ccc(/N=N/c2ccccc2)cc1" ?
Output: 14.6
